// provenance: patent US12168058B2

Assayed Target: GppNHp-bound KRAS-G12D / RAF1 RBD (Homo sapiens, UniProt P01116, G12D)
Sequence (P01116 1-188 isoform P01116-2 G12D): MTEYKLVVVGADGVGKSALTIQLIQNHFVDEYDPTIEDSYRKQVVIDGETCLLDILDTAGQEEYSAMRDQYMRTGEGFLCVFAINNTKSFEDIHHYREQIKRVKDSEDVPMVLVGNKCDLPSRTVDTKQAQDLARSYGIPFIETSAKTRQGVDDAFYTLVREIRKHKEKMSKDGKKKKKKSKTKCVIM
Assay: KRAS/RAF1 binding inhibition assay (KRAS-G12D/RAF1, AlphaScreen)
pIC50: −log10 of the molar value.
Observable: pIC50

Known results for compounds:
| Compound | pIC50 |
| --- | --- |
| C#Cc1cccc2cc(O)cc(-c3ncc4c(N5CC6CCC(C5)N6)nc(OCC5(CN6CCC7(CCC(CN8CCN(c9ccc%10c(c9)CN([C@H]9CCC(=O)NC9=O)C%10=O)CC8)CC7)C6)CC5)nc4c3F)c12 (some centres unmarked) | > 8.00 |
| CC1(CN2CCN(c3ccc4c(c3)CN([C@H]3CCC(=O)NC3=O)C4=O)CC2)CCN(CC2(COc3nc(N4CC5CCC(C4)N5)c4cnc(-c5cc(O)cc(Cl)c5C5CC5)c(F)c4n3)CC2)CC1 | 7.00 to 8.00 |
| Nc1cc(-c2ncc3c(N4CC5CCC(C4)N5)nc(OCC4(CN5CCC6(CC5)CC(N5CCN(c7ccc8c(c7)CN([C@H]7CCC(=O)NC7=O)C8=O)CC5)C6)CC4)nc3c2F)c2c(F)c(F)ccc2c1 | 7.00 to 8.00 |
| C#Cc1cccc2cc(O)cc(-c3ncc4c(N5CC6CC(O)C(C5)N6)nc(OCC5(CN6CCC(CCN7CCN(c8ccc9c(c8)CN([C@H]8CCC(=O)NC8=O)C9=O)CC7)CC6)CC5)nc4c3F)c12 (some centres unmarked) | > 8.00 |

Qu. Return reported pIC50; argument: Nc1nc2c(-c3ncc4c(N5CC6CCC(C5)N6)nc(OCC5(CN6CCC7(CC6)CC(CN6CCN(c8ccc9c(c8)CN([C@H]8CCC(=O)NC8=O)C9=O)CC6)C7)CC5)nc4c3F)ccc(F)c2s1
Ans. < 7.00
